Target: hERG (KCNH2) (Homo sapiens, UniProt Q12809)
Sequence (Q12809 whole entry): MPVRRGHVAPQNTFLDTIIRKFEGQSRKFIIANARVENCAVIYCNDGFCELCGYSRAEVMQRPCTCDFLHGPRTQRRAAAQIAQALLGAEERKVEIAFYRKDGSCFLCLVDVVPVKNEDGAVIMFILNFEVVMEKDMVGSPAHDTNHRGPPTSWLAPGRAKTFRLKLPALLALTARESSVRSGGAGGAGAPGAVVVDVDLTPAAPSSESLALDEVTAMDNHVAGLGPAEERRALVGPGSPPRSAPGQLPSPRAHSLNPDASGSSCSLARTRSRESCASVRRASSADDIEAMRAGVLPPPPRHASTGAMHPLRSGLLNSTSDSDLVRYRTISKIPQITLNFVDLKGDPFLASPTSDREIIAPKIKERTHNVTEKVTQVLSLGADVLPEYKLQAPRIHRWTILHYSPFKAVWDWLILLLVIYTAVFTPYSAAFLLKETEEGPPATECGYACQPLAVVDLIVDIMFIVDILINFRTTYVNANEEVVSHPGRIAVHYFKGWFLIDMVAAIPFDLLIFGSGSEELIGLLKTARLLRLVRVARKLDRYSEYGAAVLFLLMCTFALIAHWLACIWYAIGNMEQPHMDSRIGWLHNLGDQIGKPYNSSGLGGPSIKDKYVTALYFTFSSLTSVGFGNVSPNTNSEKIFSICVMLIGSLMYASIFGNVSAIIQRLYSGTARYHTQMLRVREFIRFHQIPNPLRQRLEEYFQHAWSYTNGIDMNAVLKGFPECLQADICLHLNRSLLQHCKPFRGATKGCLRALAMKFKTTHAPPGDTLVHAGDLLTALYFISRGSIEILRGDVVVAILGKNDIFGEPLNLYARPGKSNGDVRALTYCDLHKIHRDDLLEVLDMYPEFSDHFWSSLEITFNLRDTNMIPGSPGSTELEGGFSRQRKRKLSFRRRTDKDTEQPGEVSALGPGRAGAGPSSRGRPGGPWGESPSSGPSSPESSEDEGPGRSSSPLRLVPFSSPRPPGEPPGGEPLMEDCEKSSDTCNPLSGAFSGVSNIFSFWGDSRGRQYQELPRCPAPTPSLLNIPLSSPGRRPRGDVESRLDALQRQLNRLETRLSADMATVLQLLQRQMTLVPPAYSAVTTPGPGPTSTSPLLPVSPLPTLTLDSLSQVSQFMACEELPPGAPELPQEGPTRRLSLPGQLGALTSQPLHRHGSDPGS
Test: in vitro
Conditions: HEK293 cells that express human ERG, probe [3H]-dofetilide
Description: Displacement of [3H]-dofetilide from human ERG expressed in HEK293 cells at 300 nM
Below, each of the compounds is paired with its reported inhibition at 0.3 µM value.
endpoint: inhibition at 0.3 µM (%)

| smiles_input | numeric_result |
| --- | --- |
| CC(=O)N[C@@H](CCN1[C@@H]2CC[C@H]1C[C@@H](n1c(C)nc3c1CN(C(C)=O)CC3)C2)c1ccccc1 | 0 |
| COC(=O)N[C@@H](CCN1[C@@H]2CC[C@H]1C[C@@H](n1c(C)nc3c1CN(C(C)=O)CC3)C2)c1ccccc1 | 57 |
| CC(=O)N[C@@H](CCN1[C@@H]2CC[C@H]1C[C@@H](n1c(C)nc3c1CN(C)CC3)C2)c1ccccc1 | 0 |
| CC(=O)N[C@@H](CCN1[C@@H]2CC[C@H]1C[C@@H](n1c(C)nc3c1CN(S(C)(=O)=O)CC3)C2)c1ccccc1 | 10 |

---

Assay: Apparent permeability from basolateral to apical side of human Caco2 cells
Conditions: Caco-2

| smiles_input | unit_descriptor | Papp B→A |
| --- | --- | --- |
| CC(=O)N[C@@H](CCN1[C@@H]2CC[C@H]1C[C@@H](n1c(C)nc3c1CN(C(C)=O)CC3)C2)c1ccccc1 | ×10⁻⁶ cm/s | 5 |
| COC(=O)N1CCc2nc(C)n([C@H]3C[C@H]4CC[C@@H](C3)N4CC[C@H](NC(C)=O)c3ccccc3)c2C1 | ×10⁻⁶ cm/s | 16 |
| CC(=O)N[C@@H](CCN1[C@@H]2CC[C@H]1C[C@@H](n1c(C)nc3c1CCN(c1ccncn1)C3)C2)c1cccc(F)c1 | ×10⁻⁶ cm/s | 15 |
| COC(=O)N[C@@H](CCN1[C@@H]2CC[C@H]1C[C@@H](n1c(C)nc3c1CN(C(C)=O)CC3)C2)c1ccccc1 | ×10⁻⁶ cm/s | 27 |

---

Assay: Tmax in rat at 10 mg/kg, po
Type: ADME, organism-based
Parameters: dose 10 mg/kg, route oral
Conditions: in vivo

| compound | Tmax [h] |
| --- | --- |
| Cc1nnc(C(C)C)n1[C@@H]1C[C@H]2CC[C@@H](C1)N2CC[C@H](NC(=O)C1CCC(F)(F)CC1)c1ccccc1 [MARAVIROC] | 2 |

---

Assay: Plasma protein binding in dog at 0.5 mg/kg, iv and 1 mg/kg, po
Type: ADME, organism-based, Canis lupus familiaris
Conditions: read-out: PPB (converted)
endpoint: fraction unbound

| smiles_input | numeric_result |
| --- | --- |
| Cc1nnc(C(C)C)n1[C@@H]1C[C@H]2CC[C@@H](C1)N2CC[C@H](NC(=O)C1CCC(F)(F)CC1)c1ccccc1 | 0.4 |

---

Below, each of the compounds is paired with its reported Tmax value.
Test: Tmax in dog at 0.5 mg/kg, po
Type: ADME, organism-based, Canis lupus familiaris
Parameters: dose 0.5 mg/kg, route oral
Settings: in vivo

| compound | Tmax / min |
| --- | --- |
| CC(=O)N[C@@H](CCN1[C@@H]2CC[C@H]1C[C@@H](n1c(C)nc3c1CCN(C(=O)C(C)C)C3)C2)c1cccc(F)c1 [PF-232798] | 60 |
| Cc1nnc(C(C)C)n1[C@@H]1C[C@H]2CC[C@@H](C1)N2CC[C@H](NC(=O)C1CCC(F)(F)CC1)c1ccccc1 [MARAVIROC] | 90 |
| COC(=O)N1CCc2c(nc(C)n2[C@H]2C[C@H]3CC[C@@H](C2)N3CC[C@H](NC(C)=O)c2cccc(F)c2)C1 | 30 |
| COC(=O)N1CCc2nc(C)n([C@H]3C[C@H]4CC[C@@H](C3)N4CC[C@H](NC(C)=O)c3cccc(F)c3)c2C1 | 15 |
